Taken from patent US11034735B2.

- Test system: serum of BALB/c mice
- experimental-details: Dot-ELISA, synthetic peptides with serum of immunized BALB/c mice
- Format: in vivo
- Set-up: key: — = Did not react; X = Reacted
- reported-conditions: Dot-ELISA; peptide as antigen; serum of mouse 2 inoculated with the same isolated peptide; serum 1:25
- Protocol: The immunogenicity of each peptide was checked immunizing BALB/c mice, approximately six weeks old, with […] of protein (Machado et al., 1994). The mice were divided into groups of three animals each. […] Blood samples were collected by intracardiac puncture on the 10th day after the last immunization and the sera obtained were stored at −20° C. until evaluated by Dot-ELISA and Western-blotting assays. […]
quantity-kind: Peptide Reactivity, Mice serum inoculated with isolated peptides 2

input-sequence: SECVSLQPTDSSSASGQQQEGGGGLQGHMIDAVLETAINSDIPGVLRAIVSRDV (Synthetic hybrid peptide) [P54]
result: X
--
input-sequence: SKVASVEYILAARGGGGQVDRLANALGK (Synthetic hybrid peptide) [P28]
result: —
--
input-sequence: SKVASVEYILAARGGGGQVDRLANALGKGGGGAMGDSVHWKVKPVDNKLFIMP (Synthetic hybrid peptide) [P53]
result: —
--
input-sequence: LAESTEGNLEEVWILGKGGGGFSESMKALIKKYVDTSKPTIYVDQGTVMKV (Synthetic hybrid peptide) [P51]
result: X

###

- Tested on: serum of BALB/c mice
- experimental-details: Dot-ELISA, synthetic peptides with serum of immunized BALB/c mice
- Assay type: in vivo
- Parameters: key: — = Did not react; X = Reacted
- reported-conditions: Dot-ELISA; pool of peptides as antigen; serum of mouse 2 inoculated with the labelled peptide
quantity-kind: Reaction with pool of peptides, Mouse 2 serum

input-sequence: LAESTEGNLEEVWILGKGGGGDELSKKVCGKGTTSGSTNQCG (Synthetic hybrid peptide) [P42]
experimental-system: serum of BALB/c mice
result: —

input-sequence: GASTDDAAAAAKIVAMAYGRGGGGTIVPVKTFDDGALTYFQFYDNNKVIP (Synthetic hybrid peptide) [P50]
experimental-system: serum of BALB/c mice
result: —

input-sequence: GASTDDAAAAAKIVAMAYGRGGGGGASSVDALTATKLVAAALGH (Synthetic hybrid peptide) [P44]
experimental-system: serum of BALB/c mice
result: —

input-sequence: SKVASVEYILAARGGGGQVDRLANALGKGGGGAMGDSVHWKVKPVDNKLFIMP (Synthetic hybrid peptide) [P53]
experimental-system: serum of BALB/c mice
result: X

input-sequence: SECVSLQPTDSSSASGQQQEGGGGLQGHMIDAVLETAINSDIPGVLRAIVSRDV (Synthetic hybrid peptide) [P54]
experimental-system: serum of BALB/c mice
result: X

Given the entry SSVSSQSDQASTSSQLGGGGAMGDSVHWKVKPVDNKLFIMP (Synthetic hybrid peptide) [P41] , report its measured Reaction with pool of peptides, Mouse 2 serum. —

Given the entry SKVASVEYILAARGGGGQVDRLANALGK (Synthetic hybrid peptide) [P28] , report its measured Reaction with pool of peptides, Mouse 2 serum. X

Given the entry LAESTEGNLEEVWILGKGGGGFSESMKALIKKYVDTSKPTIYVDQGTVMKV (Synthetic hybrid peptide) [P51] , report its measured Reaction with pool of peptides, Mouse 2 serum. X

###

- System: serum of BALB/c mice
- experimental-details: Dot-ELISA, synthetic peptides with serum of immunized BALB/c mice
- Format: in vivo
- Set-up: key: — = Did not react; X = Reacted
- reported-conditions: Dot-ELISA; peptide as antigen; serum of mouse 2 inoculated with the same isolated peptide; serum 1:25
quantity-kind: Peptide Reactivity, Mice serum inoculated with isolated peptides 2

input-sequence: LAESTEGNLEEVWILGKGGGGDELSKKVCGKGTTSGSTNQCG (Synthetic hybrid peptide) [P42]
result: —
//
input-sequence: GASTDDAAAAAKIVAMAYGRGGGGGASSVDALTATKLVAAALGH (Synthetic hybrid peptide) [P44]
result: X
//
input-sequence: GASTDDAAAAAKIVAMAYGRGGGGTIVPVKTFDDGALTYFQFYDNNKVIP (Synthetic hybrid peptide) [P50]
result: —
//
input-sequence: SSVSSQSDQASTSSQLGGGGAMGDSVHWKVKPVDNKLFIMP (Synthetic hybrid peptide) [P41]
result: —
